These measurements were taken from the supplement of paper PMC10567573.

Assign protein stability index to each entry below.
B1: DCAF4 (parent)
chain: TTKCVRQYEGHVNEYAYLPLHVHE

variants of: B1; assay: protein stability index of a GFP-peptide fusion (GPS, HEK-293T) (PSI 1-6); higher = more stable; conditions: c terminus: a fixed tail appended;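 also: lentivirally expressed fusions sorted by FACS into six bins by GFP to DsRed ratio, PSI derived from sequencing read proportions per bin multiplied by bin number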
Answer using only a numeral; do not append any unit.

Ask | For the variant shown here, TTKCVRQYEGGVNEYAYLPLHVHE [H11G] , give the reported protein stability index.
Reply | 2.38

Ask | For the variant shown here, TTKCVRGYEGHVNEYAYLPLHVHE [Q7G] , give the reported protein stability index.
Reply | 2.13

Ask | For the variant shown here, TTKCVRQYEGHVQEYAYLPLHVHE [N13Q] , give the reported protein stability index.
Reply | 2.32

Ask | For the variant shown here, TTKFVRQYEGHVNEYAYLPLHVHE [C4F] , give the reported protein stability index.
Reply | 2.25

Ask | For the variant shown here, TCKCVRQYEGHVNEYAYLPLHVHE [T2C] , give the reported protein stability index.
Reply | 2.43

Ask | For the variant shown here, TTKCVRQYEGHVNEYAYYPLHVHE [L18Y] , give the reported protein stability index.
Reply | 2.38

Ask | For the variant shown here, TTFCVRQYEGHVNEYAYLPLHVHE [K3F] , give the reported protein stability index.
Reply | 1.55

Ask | For the variant shown here, ETKCVRQYEGHVNEYAYLPLHVHE [T1E] , give the reported protein stability index.
Reply | 3.14

Ask | For the variant shown here, TTKCVRWYEGHVNEYAYLPLHVHE [Q7W] , give the reported protein stability index.
Reply | 1.88

Ask | For the variant shown here, TTKCVRQYEGHVNEYAYLPEHVHE [L20E] , give the reported protein stability index.
Reply | 3.53

Ask | For the variant shown here, TTKCVRQYEGHVNEYAYLPLHVKE [H23K] , give the reported protein stability index.
Reply | 3.44

Ask | For the variant shown here, TMKCVRQYEGHVNEYAYLPLHVHE [T2M] , give the reported protein stability index.
Reply | 2.52

Ask | For the variant shown here, TTKCVRQYEGHVNEYAYLPLHTHE [V22T] , give the reported protein stability index.
Reply | 3.12

Ask | For the variant shown here, TTKCVRQYEGHENEYAYLPLHVHE [V12E] , give the reported protein stability index.
Reply | 3.35

Ask | For the variant shown here, TTKCVRQGEGHVNEYAYLPLHVHE [Y8G] , give the reported protein stability index.
Reply | 3.12

Ask | For the variant shown here, TTKCVRQYEGHVNEYFYLPLHVHE [A16F] , give the reported protein stability index.
Reply | 2.32

Ask | For the variant shown here, TTKCVRQYEGHVNEYNYLPLHVHE [A16N] , give the reported protein stability index.
Reply | 2.6

Ask | For the variant shown here, TTKCVRQYEGHVNEYAYLPLHLHE [V22L] , give the reported protein stability index.
Reply | 2.54

Ask | For the variant shown here, TTKSVRQYEGHVNEYAYLPLHVHE [C4S] , give the reported protein stability index.
Reply | 3.25

Ask | For the variant shown here, TTKCVRQYIGHVNEYAYLPLHVHE [E9I] , give the reported protein stability index.
Reply | 1.87

Ask | For the variant shown here, CTKCVRQYEGHVNEYAYLPLHVHE [T1C] , give the reported protein stability index.
Reply | 1.9

Ask | For the variant shown here, TTKCVRQYEGHVNEYAPLPLHVHE [Y17P] , give the reported protein stability index.
Reply | 3.82

Ask | For the variant shown here, TTKCVRQYEGHVNMYAYLPLHVHE [E14M] , give the reported protein stability index.
Reply | 1.43

Ask | For the variant shown here, TTKCVRQYEGHVREYAYLPLHVHE [N13R] , give the reported protein stability index.
Reply | 2.31

Ask | For the variant shown here, TTKCVRQYEGHVNEYALLPLHVHE [Y17L] , give the reported protein stability index.
Reply | 3.79

Ask | For the variant shown here, TTKCVRQYEGRVNEYAYLPLHVHE [H11R] , give the reported protein stability index.
Reply | 2.44

Ask | For the variant shown here, TTKCVRQYEGHVNEYAYGPLHVHE [L18G] , give the reported protein stability index.
Reply | 3.09

Ask | For the variant shown here, TTKCVRQYEGHVNEYAYLPLHPHE [V22P] , give the reported protein stability index.
Reply | 2.63

Ask | For the variant shown here, TTKCVRQYEGHVNEYAYLPLHWHE [V22W] , give the reported protein stability index.
Reply | 2.61

Ask | For the variant shown here, TTKCVRQYEGHVNEYAYDPLHVHE [L18D] , give the reported protein stability index.
Reply | 3.8

Ask | For the variant shown here, MTKCVRQYEGHVNEYAYLPLHVHE [T1M] , give the reported protein stability index.
Reply | 2.19

Ask | For the variant shown here, TTKCVRQYTGHVNEYAYLPLHVHE [E9T] , give the reported protein stability index.
Reply | 1.91

Ask | For the variant shown here, TTKCVRQYEGHVNPYAYLPLHVHE [E14P] , give the reported protein stability index.
Reply | 2.57

Ask | For the variant shown here, TFKCVRQYEGHVNEYAYLPLHVHE [T2F] , give the reported protein stability index.
Reply | 2.47

Ask | For the variant shown here, TTKCVRQYEGHVNEAAYLPLHVHE [Y15A] , give the reported protein stability index.
Reply | 3.57

Ask | For the variant shown here, TTKCVRQYEGHVNEYAYLPWHVHE [L20W] , give the reported protein stability index.
Reply | 2.33

Ask | For the variant shown here, TTKCVRQYEAHVNEYAYLPLHVHE [G10A] , give the reported protein stability index.
Reply | 2.37

Ask | For the variant shown here, TTKCVWQYEGHVNEYAYLPLHVHE [R6W] , give the reported protein stability index.
Reply | 1.73

Ask | For the variant shown here, TTKCVRQYEGQVNEYAYLPLHVHE [H11Q] , give the reported protein stability index.
Reply | 2.53

Ask | For the variant shown here, TTKCVRPYEGHVNEYAYLPLHVHE [Q7P] , give the reported protein stability index.
Reply | 2.06

Ask | For the variant shown here, TTKCVRQYEGHVNEYANLPLHVHE [Y17N] , give the reported protein stability index.
Reply | 3.08

Ask | For the variant shown here, TTKCVRQNEGHVNEYAYLPLHVHE [Y8N] , give the reported protein stability index.
Reply | 3.31

Ask | For the variant shown here, TTKCVRQYEGHVNEYAELPLHVHE [Y17E] , give the reported protein stability index.
Reply | 4.23

Ask | For the variant shown here, TTKCVRQYEGHVNEYAYLHLHVHE [P19H] , give the reported protein stability index.
Reply | 1.96

Ask | For the variant shown here, TTKCVRQYEGHVNEFAYLPLHVHE [Y15F] , give the reported protein stability index.
Reply | 3.08

Ask | For the variant shown here, TTKCRRQYEGHVNEYAYLPLHVHE [V5R] , give the reported protein stability index.
Reply | 1.76

Ask | For the variant shown here, TTKCVRQYEGHVNEPAYLPLHVHE [Y15P] , give the reported protein stability index.
Reply | 3.51

Ask | For the variant shown here, TTKCVRQYEGHVNEYAYLPLHVHK [E24K] , give the reported protein stability index.
Reply | 2.29

Ask | For the variant shown here, TTKCVRQDEGHVNEYAYLPLHVHE [Y8D] , give the reported protein stability index.
Reply | 3.75

Ask | For the variant shown here, TTKCVRQAEGHVNEYAYLPLHVHE [Y8A] , give the reported protein stability index.
Reply | 2.65

Ask | For the variant shown here, TTKCVRQYEGHVNEYAYLPGHVHE [L20G] , give the reported protein stability index.
Reply | 2.41

Ask | For the variant shown here, TTKCVRQYEGHVNEYAYLPLHVLE [H23L] , give the reported protein stability index.
Reply | 2.51

Ask | For the variant shown here, TTKCVRQYEGHVNEYAYLPLKVHE [H21K] , give the reported protein stability index.
Reply | 2.16

Ask | For the variant shown here, TTKCVRQYEGHVNEYAKLPLHVHE [Y17K] , give the reported protein stability index.
Reply | 2.96

Ask | For the variant shown here, TTKTVRQYEGHVNEYAYLPLHVHE [C4T] , give the reported protein stability index.
Reply | 3.42

Ask | For the variant shown here, TTKCVRQYEGHVNEYAYLPFHVHE [L20F] , give the reported protein stability index.
Reply | 2.35

Ask | For the variant shown here, TTKCVRQYEGHVNECAYLPLHVHE [Y15C] , give the reported protein stability index.
Reply | 3.56

Ask | For the variant shown here, TTKCVRNYEGHVNEYAYLPLHVHE [Q7N] , give the reported protein stability index.
Reply | 2.54

Ask | For the variant shown here, TTKCVRQYEGHVNEYAYLPLHRHE [V22R] , give the reported protein stability index.
Reply | 2.58

Ask | For the variant shown here, TTKCVRQYEGHVNEYAYLVLHVHE [P19V] , give the reported protein stability index.
Reply | 2.22

Ask | For the variant shown here, TTKCVRQYEGHVNEYAYLPLLVHE [H21L] , give the reported protein stability index.
Reply | 2.2

Ask | For the variant shown here, TTKCVRQYEGHVNEVAYLPLHVHE [Y15V] , give the reported protein stability index.
Reply | 3

Ask | For the variant shown here, TAKCVRQYEGHVNEYAYLPLHVHE [T2A] , give the reported protein stability index.
Reply | 2.47

Ask | For the variant shown here, TTKCVRQYEGAVNEYAYLPLHVHE [H11A] , give the reported protein stability index.
Reply | 2.7

Ask | For the variant shown here, TTKCVRQYWGHVNEYAYLPLHVHE [E9W] , give the reported protein stability index.
Reply | 1.61

Ask | For the variant shown here, TTKCVHQYEGHVNEYAYLPLHVHE [R6H] , give the reported protein stability index.
Reply | 2.52

Ask | For the variant shown here, TTKCVPQYEGHVNEYAYLPLHVHE [R6P] , give the reported protein stability index.
Reply | 2.26

Ask | For the variant shown here, VTKCVRQYEGHVNEYAYLPLHVHE [T1V] , give the reported protein stability index.
Reply | 2.22

Ask | For the variant shown here, TTKCTRQYEGHVNEYAYLPLHVHE [V5T] , give the reported protein stability index.
Reply | 2.69

Ask | For the variant shown here, TTKCVRQYEGHVNEYSYLPLHVHE [A16S] , give the reported protein stability index.
Reply | 2.45

Ask | For the variant shown here, TTKCVRQTEGHVNEYAYLPLHVHE [Y8T] , give the reported protein stability index.
Reply | 3.15

Ask | For the variant shown here, TTKCVRQYEGHKNEYAYLPLHVHE [V12K] , give the reported protein stability index.
Reply | 3.33

Ask | For the variant shown here, TTKCVRCYEGHVNEYAYLPLHVHE [Q7C] , give the reported protein stability index.
Reply | 2.15

Ask | For the variant shown here, TTKCVRQYEGHVNEYEYLPLHVHE [A16E] , give the reported protein stability index.
Reply | 3.31

Ask | For the variant shown here, TTKCVRQYEGHVNEYAYLPNHVHE [L20N] , give the reported protein stability index.
Reply | 3.1

Ask | For the variant shown here, TTKCVRQYEGHVNEYAYLPLGVHE [H21G] , give the reported protein stability index.
Reply | 2.06

Ask | For the variant shown here, TTKCVRKYEGHVNEYAYLPLHVHE [Q7K] , give the reported protein stability index.
Reply | 2.77

Ask | For the variant shown here, TTKCVRQYNGHVNEYAYLPLHVHE [E9N] , give the reported protein stability index.
Reply | 2.52

Ask | For the variant shown here, TTKCVRQYEGHVNEYACLPLHVHE [Y17C] , give the reported protein stability index.
Reply | 3.51

Ask | For the variant shown here, TTKCVRQYEGHVNEYAYLPLTVHE [H21T] , give the reported protein stability index.
Reply | 2.8

Ask | For the variant shown here, TTKCVRQYEDHVNEYAYLPLHVHE [G10D] , give the reported protein stability index.
Reply | 3.07

Ask | For the variant shown here, TTKCVRQYEGHVKEYAYLPLHVHE [N13K] , give the reported protein stability index.
Reply | 2.48

Ask | For the variant shown here, TTKCVRQYERHVNEYAYLPLHVHE [G10R] , give the reported protein stability index.
Reply | 2.3

Ask | For the variant shown here, TRKCVRQYEGHVNEYAYLPLHVHE [T2R] , give the reported protein stability index.
Reply | 2.41

Ask | For the variant shown here, TTKCVRQYEGHVNERAYLPLHVHE [Y15R] , give the reported protein stability index.
Reply | 3.43

Ask | For the variant shown here, TTKCVRQYEGHVNEYAGLPLHVHE [Y17G] , give the reported protein stability index.
Reply | 3.37

Ask | For the variant shown here, TTKCVRQYEGHVNEYAWLPLHVHE [Y17W] , give the reported protein stability index.
Reply | 2.69

Ask | For the variant shown here, TTKCVRQYEGMVNEYAYLPLHVHE [H11M] , give the reported protein stability index.
Reply | 2.26

Ask | For the variant shown here, TTKCVRQYEGHVNEYYYLPLHVHE [A16Y] , give the reported protein stability index.
Reply | 1.87

Ask | For the variant shown here, TTKCVRQYEGHVNEYAYVPLHVHE [L18V] , give the reported protein stability index.
Reply | 2.48
